assay: qHTS of pediatric cancer cell lines to identify multiple opportunities for drug repurposing: Primary screen for OHS-50 cells (AID 1347103); settings: OHS-50 osteosarcoma viability, CellTiter-Glo luminescence, 48 h; series mostly up to 57.3 µM; note: nearly all actives have a fitted effect of over 40% in size
Results filed as inconclusive are left out. Active and inactive are the calls of the source. Calls come from the whole dose curve; as a rule, active = well fitted cell-killing curve with a large enough effect; inconclusive = small, poorly fitted or top-dose-only effect; inactive = no such curve, though single readings can be large or run the other way.
In this exercise, the only acceptable responses are active, inactive

For this compound, state the assay outcome: CC1=C(C(=O)O)N2C(=O)[C@@H](N)[C@H]2SC1 inactive

* * *

test: Quantitative High-Throughput drug screen in 47 multiple myeloma cell lines against the NCATS MIPE library collection: FR4_PLB cell viability assay (AID 1918924; note: nearly all actives have a fitted effect of over 35% in size; note: potency is the fitted concentration of half-maximal effect); details: FR4_PLB myeloma cells viability, CellTiter-Glo ATP, 48 h; series mostly up to 45.8 µM
Results filed as inconclusive are left out. Calls of active or inactive are those of the source. The call rests on the fitted dose curve; in most records, active means well fitted cell-killing curve with a large enough effect; inconclusive means small, poorly fitted or top-dose-only effect, or effect the other way; inactive means no such curve, though single readings can be large or run the other way.
assay_readout: Potency

Answered cases to consult:
substance_smiles	Potency
CC1=NN=C(c2ccc(N)cc2)c2cc3c(cc2C1)OCO3	inactive
O=C(Oc1ccc([N+](=O)[O-])cc1)N1CCN(Cc2cccc(Oc3ccccc3)c2)CC1	inactive
CC(C)[C@]12O[C@@H]1[C@@H]1O[C@]13[C@]1(O[C@H]1C[C@@H]1C4=C(CC[C@@]13C)C(=O)OC4)[C@H]2O	inactive
CC[C@@]1(O)C(=O)OCc2c1cc1n(c2=O)Cc2cc3ccccc3nc2-1	296 nM (active)

Consider the additional molecule presented here.
What value of Potency has been recorded for this entry: CCOC(=O)c1cncn1[C@H](C)c1ccccc1 inactive

* * *

experiment: Quantitative High-Throughput drug screen in 47 multiple myeloma cell lines against the NCATS MIPE library collection: MM1R_ATCC cell viability assay (AID 1918981); details: MM1R multiple myeloma cells, CellTiter-Glo viability, 48 h; series mostly up to 45.8 µM; note: nearly all actives have a fitted effect of over 35% in size; note: potency is the fitted concentration of half-maximal effect
Inconclusive results are not listed. Activity calls are given as the source filed them. Calls come from the whole dose curve; as a rule, active = well fitted cell-killing curve with a large enough effect; inconclusive = small, poorly fitted or top-dose-only effect, or effect the other way; inactive = no such curve, though single readings can be large or run the other way.
assay_readout: Potency

Answered cases to consult:
compound	assay_readout	measured_result
CN[C@@H]1Cc2cccc3[nH]c(=O)n(c23)C1	Potency	inactive
CC1(N2CCC(n3c([C@@H]4CCCNC4)nc4ccccc43)CC2)CCCCCCC1	Potency	14.8 µM (active)
CC(C)(C)c1cc(C=C(C#N)C#N)cc(Br)c1O	Potency	23.5 µM (active)
COc1ccc2c(c[n+](C)c3c4cc5c(cc4ccc23)OCO5)c1OC	Potency	2.35 µM (active)
CC(C)N(CCNC(=O)CN1CCCC1=O)C(C)C	Potency	inactive
CC(C)N[C@@H]1CCn2c(=O)[nH]c3cccc(c32)[C@@H]1O	Potency	6.62 µM (active)
C=C[C@@H]1CN2CCC1C[C@@H]2[C@@H](O)c1ccnc2ccccc12 (some centres undefined)	Potency	16.6 µM (active)
CC(=Cc1csc(C)n1)[C@@H]1C[C@H]2O[C@@H]2CCC[C@H](C)[C@@H](O)[C@@H](C)C(=O)C(C)(C)[C@@H](O)CC(=O)O1	Potency	inactive

What value of Potency has been recorded for this entry: O=c1cccc2n1CC1CNC[C@H]2C1 inactive

Entry to check: CC(N[C@H]1C[C@H]1c1ccccc1)c1ccc2c(c1)OCCO2 (some centres undefined) inactive

Entry to check: O=S(=O)(CC1CS1)c1ccc(Oc2ccccc2)cc1 (centres undefined) 16.6 µM (active)

Entry to check: CN1CCN(c2ccc([N+](=O)[O-])c3no[n+]([O-])c23)CC1 20.9 µM (active)

Entry to check: Oc1ccc2c3c1O[C@H]1c4[nH]c5c(c4C[C@@]4(O)[C@@H](C2)N(CC2CC2)CC[C@]314)C[C@@]1(O)[C@H]2Cc3ccc(O)c4c3[C@@]1(CCN2CC1CC1)[C@H]5O4 inactive

Entry to check: O=C(Oc1ccc([N+](=O)[O-])cc1)N1CCN(Cc2cccc(Oc3ccccc3)c2)CC1 inactive

Entry to check: O=S(=O)(F)Cc1ccccc1 inactive

Entry to check: O=C(N[C@H]1CN2CCC1CC2)c1ccc(Cl)cc1 inactive

Entry to check: O=C(Nc1ccncc1)C(=O)c1cn(Cc2ccc(Cl)cc2)c2ccccc12 0.187 µM (active)

Entry to check: COc1cc([C@@H]2c3cc4c(cc3[C@@H](O)C3COC(=O)C32)OCO4)cc(OC)c1O (some centres undefined) 0.0833 µM (active)

Entry to check: Cc1ccccc1-n1c(Cn2cnc3c(N)ncnc32)nc2cccc(C)c2c1=O 0.187 µM (active)
